Test system: Multidrug resistance-associated proteins (MRPs)
Experiment: In vivo microdialysis pharmacokinetics of LVFX with MRPs inhibitor MK571
Set-up: species or system rat
Details: rat, intravenous, with MK571 20 mg/kg i.p., 30 min before LVFX; blood; MK571 group, MK571 20 mg/kg i.p. + LVFX 50 mg/kg; mean ± SD, N=5
observed-property: AUC(0-inf)

compound="C[C@H]1COc2c(N3CCN(C)CC3)c(F)cc3c(=O)c(C(=O)O)cn1c23 [LVFX, Levofloxacin]" tested_on="Multidrug resistance-associated proteins (MRPs)" result="11700 ng·h/mL"

---

Biological target: Breast cancer resistance protein (BCRP) (Rattus norvegicus)
Construct: from tissue; host or cells: living rat (blood-brain barrier, choroid plexus)
Sequence (Q80W57 whole entry): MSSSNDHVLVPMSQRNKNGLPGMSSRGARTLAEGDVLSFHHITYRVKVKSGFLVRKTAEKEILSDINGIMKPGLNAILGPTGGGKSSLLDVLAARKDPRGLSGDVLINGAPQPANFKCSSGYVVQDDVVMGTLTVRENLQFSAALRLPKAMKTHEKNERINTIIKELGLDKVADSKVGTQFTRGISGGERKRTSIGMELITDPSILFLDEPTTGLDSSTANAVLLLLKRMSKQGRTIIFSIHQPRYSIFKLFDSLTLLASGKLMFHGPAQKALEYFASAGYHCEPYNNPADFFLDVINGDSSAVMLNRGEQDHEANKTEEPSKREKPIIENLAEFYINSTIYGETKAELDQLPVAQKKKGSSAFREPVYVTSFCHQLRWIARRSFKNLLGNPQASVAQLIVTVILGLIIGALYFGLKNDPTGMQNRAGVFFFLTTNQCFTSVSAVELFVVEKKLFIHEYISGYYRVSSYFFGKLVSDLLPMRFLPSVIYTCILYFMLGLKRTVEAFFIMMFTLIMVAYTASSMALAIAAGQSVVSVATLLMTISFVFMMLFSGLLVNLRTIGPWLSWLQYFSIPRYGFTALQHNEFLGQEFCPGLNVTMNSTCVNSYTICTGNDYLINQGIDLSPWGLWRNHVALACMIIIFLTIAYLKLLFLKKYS
Assay: In vivo microdialysis pharmacokinetics of LVFX with BCRP inhibitor Ko143
Details: CSF (lateral ventricle microdialysate, unbound), intravenous, with Ko143 15 mg/kg i.p., CSF, Ko143 group, Ko143 15 mg/kg i.p. + LVFX 50 mg/kg, mean ± SD, N=5
observed-property: AUC(0-inf) (ng·h/mL)

compound_string=C[C@H]1COc2c(N3CCN(C)CC3)c(F)cc3c(=O)c(C(=O)O)cn1c23 observed_property=AUC(0-inf) measurement_units=ng·h/mL number=4940

---

System: P-glycoprotein (P-gp)
Assay: In vivo microdialysis pharmacokinetics of LVFX with P-gp inhibitor Tariquidar
Parameters: species or system rat
Details: rat, intravenous, with Tariquidar 8 mg/kg i.p., 30 min before LVFX; blood; TAR group, Tariquidar 8 mg/kg i.p. + LVFX 50 mg/kg; N=5
observed-property: Tmax (min)

compound_string=C[C@H]1COc2c(N3CCN(C)CC3)c(F)cc3c(=O)c(C(=O)O)cn1c23 tested_on="P-glycoprotein (P-gp)" measurement_units=min number=15

---

Assay: In vivo microdialysis pharmacokinetics of LVFX without transporter inhibitors
Design: species or system rat
Conditions: rat, CSF, iv, 50 mg/kg, CSF; Group 1: vehicle solution of Tariquidar/Ko143 + LVFX 50 mg/kg; mean ± SD, n=3
Protocol: On the day of surgery, rats were anesthetized using inhaled isoflurane via a facemask. The rats were placed in a stereotaxic frame (Gene&I), and the body temperature was maintained with a homoeothermic blanket set at 37°C. A midline incision was made to expose the skull. […]
observed-property: MRT

compound_string=C[C@H]1COc2c(N3CCN(C)CC3)c(F)cc3c(=O)c(C(=O)O)cn1c23 result="1.18 h"

---

Assay: In vivo microdialysis pharmacokinetics of LVFX without transporter inhibitors
Design: species or system rat
Conditions: rat, lateral ventricle CSF (microdialysate, unbound), iv, 50 mg/kg, lateral ventricle CSF; control group, vehicle + LVFX 50 mg/kg tail vein; mean ± SD, N=12
observed-property: AUC(0-inf) (ng·h/mL)

compound_string=C[C@H]1COc2c(N3CCN(C)CC3)c(F)cc3c(=O)c(C(=O)O)cn1c23 number=4550

---

System: P-glycoprotein (P-gp)
Test: In vivo microdialysis pharmacokinetics of LVFX with P-gp inhibitor Tariquidar
Parameters: species or system rat
Conditions: rat, CSF (lateral ventricle microdialysate, unbound), intravenous, with Tariquidar 8 mg/kg i.p.; CSF; TAR group, Tariquidar 8 mg/kg i.p. + LVFX 50 mg/kg; N=5
observed-property: Tmax (min)

compound_string=C[C@H]1COc2c(N3CCN(C)CC3)c(F)cc3c(=O)c(C(=O)O)cn1c23 measurement_units=min number=15
